conditions_used: in n-octanol, 313.25 K
parameter: solubility (mole fraction)
One number for each entry.

GET /values?readout=solubility (mole fraction)&item= "Cc1cc(O)c2c(c1)C(=O)c1cc(O)cc(O)c1C2=O"
0.00347

====

conditions_used: in ethanol, 273.65 K
parameter: solubility (mole fraction)
One number for each entry.

Need solubility (mole fraction) of "Cc1cc(O)c2c(c1)C(=O)c1cc(O)cc(O)c1C2=O" , thanks.
0.000485

====

conditions_used: in ethanol, 313.25 K
parameter: solubility (mole fraction)
Answers are plain numbers.

Any idea what solubility (mole fraction) was measured for "Cc1cc(O)c2c(c1)C(=O)c1cc(O)cc(O)c1C2=O" ?
0.00148

====

conditions_used: in n-octanol, 298.15 K
parameter: solubility (mole fraction)
Give bare numbers.

# input compound: "Cc1cc(O)c2c(c1)C(=O)c1cc(O)cc(O)c1C2=O" ; wanted: its solubility (mole fraction)
0.00272

====

conditions_used: in n-octanol, 273.65 K
parameter: solubility (mole fraction)
Answers are plain numbers.

Param item = "Cc1cc(O)c2c(c1)C(=O)c1cc(O)cc(O)c1C2=O" ; retrieve measured solubility (mole fraction).
0.00221

====

conditions_used: in n-octanol, 289.35 K
parameter: solubility (mole fraction)

What value of solubility (mole fraction) has been reported for the following compound? "Cc1cc(O)c2c(c1)C(=O)c1cc(O)cc(O)c1C2=O"
0.00266

====

conditions_used: in n-octanol, 307.5 K
parameter: solubility (mole fraction)

Please give the measured solubility (mole fraction) for this compound: "Cc1cc(O)c2c(c1)C(=O)c1cc(O)cc(O)c1C2=O"
0.00299

====

conditions_used: in ethanol, 307.5 K
parameter: solubility (mole fraction)
Answers are plain numbers.

What value of solubility (mole fraction) has been recorded for this entry: "Cc1cc(O)c2c(c1)C(=O)c1cc(O)cc(O)c1C2=O"
0.00116

====

conditions_used: in ethanol, 318.05 K
parameter: solubility (mole fraction)
Give bare numbers.

I have this compound here, "Cc1cc(O)c2c(c1)C(=O)c1cc(O)cc(O)c1C2=O" , and I need its recorded solubility (mole fraction).
0.00168

====

conditions_used: in ethanol, 298.15 K
parameter: solubility (mole fraction)
Answers are plain numbers.

So what's the measured solubility (mole fraction) for this one? "Cc1cc(O)c2c(c1)C(=O)c1cc(O)cc(O)c1C2=O"
0.000936
